assay: qHTS Primary assay for Inhibitors of Plasmodium falciparum Dd2 growth in vitro; further: nearly all actives have a fitted effect of over 65% in size; conditions: P. falciparum Dd2 growth, SYBR Green, 72 h; series mostly up to 28.9 µM
About 5,300 (4.4%) of roughly 120,000 compounds were called active. Not shown: some 22% with an inconclusive outcome. The call rests on the fitted dose curve; in most records, active means well fitted inhibition curve with a large enough effect; inconclusive means small, poorly fitted or top-dose-only effect; inactive means no such curve, though single readings can be large or run the other way. The full list was thinned out, with actives kept by preference.
Outcomes: yes (1) = active, no (0) = inactive

MOLECULE	CATEGORY
O=C(CCc1cccnc1)N1CCc2c(n(CCOc3ccccc3)n(-c3ccccc3)c2=O)C1	no (0)
CCOc1ccc(-c2cc(C)n3nc(C(=O)Nc4ccc(C)c(C)c4)cc3n2)cc1	no (0)
CCOC(=O)c1[nH]ncc1C1CC(=O)Nc2c1cnn2Cc1cccnc1 (stereo not given)	no (0)
CCc1ccc(CNCc2c(C(=O)O)n(Cc3ccc(F)cc3Cl)c3cc(OC)ccc23)cc1	no (0)
COc1ccccc1-c1cc(C(F)(F)F)nc(S(=O)(=O)CCCC(=O)Nc2cc(C)ccc2O)n1	no (0)
C[C@H](C(=O)N1Cc2ccccc2CC2(CCN(Cc3ccncc3)CC2)C1)c1ccccc1	yes (1)
COCCNC(=O)CCc1cc2ccc(C)cc2[nH]c1=O	no (0)
CCNC(=O)N1CCCC1c1noc(CCC(=O)NCCc2nc3ccccc3[nH]2)n1 (stereo not given)	no (0)
CSc1ccccc1NC(=O)CCS(=O)(=O)c1nc(-c2cccs2)cc(C(F)(F)F)n1	no (0)
COc1cccc(CNCc2c(C(=O)O)n(Cc3ccc(C)cc3)c3cc(C)ccc23)c1OC	yes (1)
CC(C)Cc1ccc(CN2CCC3(CC2)Cc2ccccc2CNC3=O)cc1	yes (1)
CN1CCc2c([nH]c3ccccc23)C12CCN(C(=O)c1nccc3ccccc13)CC2	no (0)
Cc1ccccc1NC(=O)CCOc1ccccc1	no (0)
CCc1cccc(NC(=O)N2CCC(c3noc(COc4ccc(F)cc4)n3)CC2)c1	no (0)
COc1ccccc1-c1cc(C(F)(F)F)nc(S(=O)(=O)CCCC(=O)Nc2ccc(F)cc2F)n1	yes (1)
Cc1ccc(F)c(OCC(=O)c2ccc3c(c2)N(CCCC(=O)NCC2CCCO2)C(=O)CO3)c1 (stereo not given)	no (0)
Oc1ccccc1CN1C[C@H](O)C[C@H]1c1nc(Cc2ccc(F)cc2Cl)no1	no (0)
Cc1ccc2ncc(C(=O)Nc3ccc(OC(F)(F)F)cc3)c(=O)n2c1	no (0)
COc1ccc(N2CCN(CCCNC(=O)C3(CCO)CC34CCOCC4)CC2)cc1 (stereo not given)	no (0)
CCOc1ccc(-c2cc3nc(C4CCN(C(=O)OC(C)(C)C)CC4)c(C(=O)Nc4cccc(CC)c4)cn3n2)cc1	yes (1)

---

assay: qHTS Primary assay for Inhibitors of Plasmodium falciparum Dd2 growth in vitro; further: nearly all actives have a fitted effect of over 65% in size; settings: P. falciparum Dd2 growth, SYBR Green, 72 h; series mostly up to 28.9 µM
Among all 120,000 compounds or so, about 5,300 (4.4%) were called active. About 22% were inconclusive and are not listed. Calls come from the whole dose curve; as a rule, active = well fitted inhibition curve with a large enough effect; inconclusive = small, poorly fitted or top-dose-only effect; inactive = no such curve, though single readings can be large or run the other way. The sample as a whole holds a higher share of actives than the screen did.
Outcomes: TRUE = active, FALSE = inactive

COMPOUND	CATEGORY
CCC(C(=O)Nc1ccc2c(c1)CN(Cc1cc(F)cc(F)c1)C(=O)CO2)c1ccccc1 (stereo not given)	TRUE
Cc1ccc2c(c1)N1C(=O)OC[C@@H]1CCN(C(=O)Nc1ccccc1)C2	FALSE
Fc1ccc(NC2CCCN(Cc3ccc(C#Cc4cncnc4)cc3)C2)cc1F (stereo not given)	FALSE
O=C(c1ccc(C(F)(F)F)cc1)N1CCC([C@@H]2CNC[C@H]2CO)CC1	FALSE
O=C(Cn1nc2c(cc1=O)CCCCC2)Nc1nc(-c2ccncc2)cs1	FALSE
CCC1Oc2ccc(NC(=O)c3cccs3)cc2CN(Cc2ccc(F)cc2)C1=O (stereo not given)	FALSE
CCC(C)N1Cc2cc(NC(=O)c3ccc([N+](=O)[O-])cc3)ccc2OCC1=O (stereo not given)	FALSE
O=C1CSC2(CCN(S(=O)(=O)c3ccc(F)cc3)CC2)N1Cc1ccco1	FALSE
COc1ccccc1OCCNC(=O)c1cn2ccnc(-c3ccc(C)cc3)c2n1	FALSE
CCC(=O)N1N=C(c2ccc(OC)cc2)CC1c1cn(-c2ccccc2)nc1-c1cccs1 (stereo not given)	TRUE

---

Experiment: qHTS Primary assay for Inhibitors of Plasmodium falciparum Dd2 growth in vitro; further: nearly all actives have a fitted effect of over 65% in size
Conditions: P. falciparum Dd2 growth, SYBR Green, 72 h; series mostly up to 28.9 µM
Description: Malaria, a parasitic disease spread to humans through the bite of a Plasmodium infected Anopheles mosquito, continues to be a global health burden affecting millions of people, with an estimated 228 million cases and 405,000 deaths in 2018. […] Malaria-vivax Assay Protocol: PROTOCOL TABLE (as described by Inglese et al., 2007) SEQUENCE No. (e.g., 1, 2, 3, etc.); […] […] Compound Management for Quantitative High-Throughput Screening. […]
In all, about 120,000 compounds went through this assay and about 5,300 (4.4%) were called active. Not shown: some 22% with an inconclusive outcome. The call rests on the fitted dose curve; in most records, active means well fitted inhibition curve with a large enough effect; inconclusive means small, poorly fitted or top-dose-only effect; inactive means no such curve, though single readings can be large or run the other way. The sample holds actives, similar compounds and a random draw of the others, so the mix is not that of the screen.
Outcomes: active, inactive

MOLECULE	CATEGORY
CCOc1ccc2c(n1)CCN(C(=O)c1ccccc1C)C2	inactive
CC(c1cccs1)N(C)Cc1ccncc1 (stereo unspecified)	inactive
O=C(NCC1(COc2cccnc2)C[C@@H](O)[C@@H](O)C1)C1CCCC1 (stereo partly specified)	inactive
COCC(=O)NC1CCN(c2ccc(C)cc2)C1=O (stereo unspecified)	inactive
CC(C)c1ccc2oc(-c3cc(NC(=O)c4cccs4)ccc3Cl)nc2c1	inactive
Cc1nn(C)cc1CN(C)C(=O)C1CN(S(=O)(=O)c2cccnc2)CC12CCCCC2 (stereo unspecified)	inactive
O=C(Cc1cccc(F)c1)NC1CCN(c2cc(C(F)(F)F)ncn2)CC1	inactive
NCC(=O)N1Cc2ccccc2CC2(CCCCN2CC2CCOCC2)C1 (stereo unspecified)	inactive
CC1(C)[C@H](Cc2cc(-c3ccccc3)on2)C[C@@H]1NCC1CC1	active
COc1ccc(CN2C(=O)CO[C@H]3CN(Cc4cccnc4)C[C@H]32)cc1	inactive
CCn1cc(-c2ccc(C)cc2)cc1C(=O)NCc1cccnc1	inactive

---

test: qHTS Primary assay for Inhibitors of Plasmodium falciparum Dd2 growth in vitro; further: nearly all actives have a fitted effect of over 65% in size; conditions: P. falciparum Dd2 growth, SYBR Green, 72 h; series mostly up to 28.9 µM
About 5,300 (4.4%) of roughly 120,000 compounds were called active. Roughly 22% stayed inconclusive and do not appear here. Calls come from the whole dose curve; as a rule, active = well fitted inhibition curve with a large enough effect; inconclusive = small, poorly fitted or top-dose-only effect; inactive = no such curve, though single readings can be large or run the other way. What follows is part of a selection rich in actives, with near analogues and random picks from the rest.
Outcomes: active, inactive

MOLECULE	CATEGORY
CCCn1c2ccccc2c2cnn(CC(=O)N(C)c3ccccc3CC)c(=O)c21	inactive
CCCN(CCC)CCCNC(=O)Cn1ncc2c3ccccc3n(Cc3ccccc3)c2c1=O	active
CCCn1c2ccccc2c2cnn(CC(=O)NCCCOC(C)C)c(=O)c21	inactive
Cc1cc(C)cc(C(=O)N2CC(c3nnc(-c4ccncc4)o3)C3(CCOCC3)C2)c1 (stereo not given)	inactive
CCN(CCCNC(=O)Cn1ncc2c3ccccc3n(C)c2c1=O)Cc1ccccc1	inactive

---

experiment: qHTS Primary assay for Inhibitors of Plasmodium falciparum Dd2 growth in vitro; further: nearly all actives have a fitted effect of over 65% in size; conditions: P. falciparum Dd2 growth, SYBR Green, 72 h; series mostly up to 28.9 µM
Among all 120,000 compounds or so, about 5,300 (4.4%) were called active. Another 22% or so got no clear call; they are omitted. Calls follow the shape of the dose curve; as a rule, active = well fitted inhibition curve with a large enough effect; inconclusive = small, poorly fitted or top-dose-only effect; inactive = no such curve, though single readings can be large or run the other way. This is one part of a sample in which actives are shown more often than they occur.
Outcomes: active, inactive

COMPOUND	CATEGORY
CC(C)(C)C(=O)N1CC[C@@H](CC(=O)O)[C@@H](CCN2CCN(c3cccc(C(F)(F)F)c3)CC2)C1	inactive
Cc1ncsc1C1N(C2CCN(C(=O)c3ccncc3)CC2)C(=O)C12CCCC2 (stereo not given)	inactive
Cc1cc(N2CCN(c3cccc(C(F)(F)F)c3)CC2)n2nc(-c3ccccc3)nc2n1	inactive
Cc1cccc(CN2CCc3ncc(C(=O)NCc4ccccc4)n3CC2)n1	inactive
Cc1cc2nc3n(c(=O)c2n1CC(=O)NCc1ccc(F)cc1)CCCCC3	inactive
Cc1noc2c(N3CC[S+](=O)([O-])CC3)cc(-c3ccc(Cl)cc3)nc12	inactive
CCNc1ncc(CN2CCN(c3cccc(C(F)(F)F)c3)CC2)cn1	active
O=C(C1CCOCC1)N1CCC2(CC1)CC(N1CCCC1)CCO2 (stereo not given)	inactive
CN(C)C[C@H]1C[C@@H](CO)CN(C(=O)CCc2ccncc2)C1	inactive
N#Cc1ccc(S(=O)(=O)N2CC(n3cc(C(=O)NCc4ccccc4)nn3)C2)cc1	inactive

---

test: qHTS Primary assay for Inhibitors of Plasmodium falciparum Dd2 growth in vitro; further: nearly all actives have a fitted effect of over 65% in size; conditions: P. falciparum Dd2 growth, SYBR Green, 72 h; series mostly up to 28.9 µM
About 5,300 (4.4%) of roughly 120,000 compounds were called active. Inconclusive results (about 22%) are left out. Calls come from the whole dose curve; as a rule, active = well fitted inhibition curve with a large enough effect; inconclusive = small, poorly fitted or top-dose-only effect; inactive = no such curve, though single readings can be large or run the other way. Only a selection was taken, and actives are over-represented in it overall.
Outcomes: active, inactive

COMPOUND	CATEGORY
O=C(c1n[nH]c(=O)c2ccccc12)N1CC2CC(C1)[C@H]1CCCC(=O)N1C2 (stereo not given in full)	inactive
CN(C)S(=O)(=O)N1CCC(Oc2ccc(C(=O)NC3(C)CC3)cc2)CC1	inactive
O=C(CCS(=O)(=O)c1cc(Br)cc2c1N(C(=O)C1CC1)CC2)Nc1ccc(C(F)(F)F)cc1	active
COc1ccc(N2CC(c3noc(-c4ccc(C(C)(C)C)cc4)n3)CC2=O)cc1 (stereo not given)	inactive
CN1C(=O)[C@@H]2C[C@@H](O)CN2C2(CN(Cc3cnc4ccccc4c3)C2)C1=O	inactive
CCN1c2cc(C(=O)Nc3ccc(F)c(C)c3)ccc2C(=O)N2CCCCC21 (stereo not given)	inactive
CCN1c2cc(C(=O)NCc3ccc(OC)cc3OC)ccc2C(=O)N2CCCCCC21 (stereo not given)	active
CN1C(=O)CC(C(=O)O)C12CCN(Cc1cccc(OC(F)F)c1)CC2 (stereo not given)	inactive
COc1ccc(N2CCN(C(=O)c3ccc4c(Cl)c5c(nc4c3)CCCC5)CC2)cc1	inactive
CC(=O)N1CC2(CCN(C(=O)CCC(=O)O)CC2)Cc2ccccc21	inactive
Cc1ccccc1CNC(=O)C1CCCN(C(=O)c2ccccc2)CCC(=O)NCC1 (stereo not given)	inactive
CCN1c2cc(C(=O)Nc3ccc(SC)cc3)ccc2C(=O)N2CCCCCC21 (stereo not given)	inactive
O=C(c1cnc[nH]1)N1C[C@@H](COCC2CC2)[C@H](c2ccccn2)C1	inactive
COCCNC(=O)CC[C@]12CC[C@](C)(O)C[C@H]1C(C)(C)C[C@@H]2NC(=O)c1ccc(C(F)(F)F)cc1	inactive
CCOC(=O)C1CCN(C(=O)CSc2c3c(nc4ccc(Cl)cc24)CCCC3)CC1	active
Cc1cccc(C(=O)N2CC(c3nnc(C(C)C)o3)C3(CCOCC3)C2)c1 (stereo not given)	inactive
CN1C(=O)c2cccn2CC1C(=O)NC1CCN(Cc2ccccc2)CC1 (stereo not given)	inactive
COc1ccc(CC(=O)N2CCC(Cc3nc(-c4ccccc4)no3)CC2)cc1OC	inactive
CCN1c2cc(C(=O)Nc3ccc(OC)c(F)c3)ccc2C(=O)N2CCCCC21 (stereo not given)	inactive
Cc1cccc(CC(=O)N2C[C@@H](COc3ccccc3)[C@H](C(N)=O)C2)c1	inactive
